Item-by-item account of EC50
# TARGET_OR_SYSTEM: human β3 adrenergic receptor (Homo sapiens)
# Construct: expressed in transfected cells; host or cells: Chinese hamster ovary (CHO) cells, stably transfected
# Sequence (P13945 whole entry): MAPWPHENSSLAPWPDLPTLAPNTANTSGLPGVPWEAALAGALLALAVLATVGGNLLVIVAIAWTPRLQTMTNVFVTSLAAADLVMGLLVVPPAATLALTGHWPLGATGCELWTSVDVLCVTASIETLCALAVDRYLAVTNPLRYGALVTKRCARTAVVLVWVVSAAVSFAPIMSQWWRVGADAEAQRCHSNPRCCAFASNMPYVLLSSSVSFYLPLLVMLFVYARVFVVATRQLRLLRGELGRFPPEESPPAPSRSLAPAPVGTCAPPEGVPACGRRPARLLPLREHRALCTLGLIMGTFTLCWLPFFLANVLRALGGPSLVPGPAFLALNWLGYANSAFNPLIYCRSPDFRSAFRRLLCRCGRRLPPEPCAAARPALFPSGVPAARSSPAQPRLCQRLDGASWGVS
# ASSAY_INFO: Beta-3 agonist in vitro functional assay: cAMP production (LANCE TR-FRET) in CHO cells stably transfected with the cloned β3 receptor
# Format: cell-based
# RUN_PARAMETERS: Table 8; Beta-3 agonist in vitro functional assay; read-out: Human β3 agonist functional activity

>  <COMPOUND>
O=C(c1ccc(C[C@@H]2CC[C@H]([C@H](O)c3ccccc3)N2)cc1)N1CCC(c2ccccc2)(c2nnn[nH]2)CC1

>  <EC50>
0.01 to 0.0999 µM

$$$$

Entry `CCCN(CCC)C(=O)CC1(c2ccccc2)CCN(C(=O)c2ccc(C[C@@H]3CC[C@H]([C@H](O)c4ccccc4)N3)cc2)CC1` : reported EC50 = ?
0.1 to 0.999 µM

Entry O=C(c1ccc(C[C@@H]2CC[C@H]([C@H](O)c3ccccc3)N2)cc1)N1CCC2(CC1)C(=O)NCC2c1ccccc1C(F)(F)F (stereo partly drawn) : reported EC50 = ?
0.001 to 0.0099 µM

* * *

Item-by-item account of EC50
# TARGET_OR_SYSTEM: human β3 adrenergic receptor (Homo sapiens)
# Construct: expressed in transfected cells; host or cells: Chinese hamster ovary (CHO) cells, stably transfected
# ASSAY_INFO: Beta-3 agonist in vitro functional assay: cAMP production (LANCE TR-FRET) in CHO cells stably transfected with the cloned β3 receptor
# Type: cell-based
# RUN_PARAMETERS: Table 9; Beta-3 agonist in vitro functional assay; read-out: Human β3 agonist functional activity

Worked cases, EC50 given:
>  <COMPOUND>
O=C(c1ccc(C[C@@H]2CC[C@H]([C@H](O)c3ccccc3)N2)cc1)N1CCN(S(=O)(=O)c2ccccc2)CC1

>  <EC50>
10 to 99.9 nM

$$$$
>  <COMPOUND>
CC(C)(c1ccccc1F)N1CCN(C(=O)c2ccc(C[C@@H]3CC[C@H]([C@H](O)c4ccccc4)N3)cc2)CC1

>  <EC50>
1 to 9.9 nM

$$$$
>  <COMPOUND>
O=C(c1ccc(C[C@@H]2CC[C@H]([C@H](O)c3ccccc3)N2)cc1)N1CCN(C(=O)c2ccccn2)CC1

>  <EC50>
10 to 99.9 nM

$$$$
>  <COMPOUND>
CC(c1ccccn1)N1CCN(C(=O)c2ccc(CC3CCC(C(O)c4ccccc4)N3)cc2)CC1 (stereo not shown)

>  <EC50>
1 to 9.9 nM

$$$$
>  <COMPOUND>
O=C(c1ccc(C[C@@H]2CC[C@H]([C@H](O)c3ccccc3)N2)cc1)N1CCN(c2ccc3c(c2)OCCO3)CC1

>  <EC50>
100 to 999 nM

$$$$

Checklist item: EC50 tested on human β3 adrenergic receptor (Homo sapiens), entry `Cn1ccnc1CN1CCN(C(=O)c2ccc(C[C@@H]3CC[C@H]([C@H](O)c4ccccc4)N3)cc2)CC1` , value?
100 to 999 nM

Checklist item: EC50 tested on human β3 adrenergic receptor (Homo sapiens), entry `O=C(c1ccc(C[C@@H]2CC[C@H]([C@H](O)c3ccccc3)N2)cc1)N1CCN(c2ccccn2)CC1` , value?
100 to 999 nM

Checklist item: EC50 tested on human β3 adrenergic receptor (Homo sapiens), entry `O=C(c1ccc(C[C@@H]2CC[C@H]([C@H](O)c3ccccc3)N2)cc1)N1CCN(Cc2ccncn2)CC1` , value?
10 to 99.9 nM
